- experimental_protocol: physchem
- stated_conditions: pH 3.4, logP (HCOOH)
Field: chromatographic logP. Provide a value for each of the compounds that follow.
Write no unit; give the number alone.

// chromatographic logP value for O=C(NS(=O)(=O)c1ccccc1)c1cccc(-c2cnn(-c3cncc(F)c3)c2)n1 [Compound 31] : 2.82

GET /value?item= O=C(NS(=O)(=O)CC(F)(F)F)c1cccc(-c2cnc(-c3cncc(F)c3)s2)n1 [Compound 57] &field=chromatographic logP returns 2.58

// CCN(CC)S(=O)(=O)NC(=O)c1cccc(-c2cnn(-c3cccnc3)c2)n1 [Compound 40] : chromatographic logP value = 2.49

Per the record, CS(=O)(=O)NC(=O)c1cccc(-c2nnc(-c3cncc(F)c3)s2)n1 [Compound 3] has chromatographic logP of 1.79

// chromatographic logP value for CCN(CC)S(=O)(=O)NC(=O)c1cccc(-c2cnn(-c3cncnc3)c2)n1 [Compound 38] : 2.36

Measured chromatographic logP, O=C(NS(=O)(=O)C1CC1)c1cccc(-c2cnn(-c3cncnc3)c2)n1 [Compound 28] : 1.76

The compound listed as CCS(=O)(=O)NC(=O)c1cccc(-c2cnn(-c3cncnc3)c2)n1 [Compound 7] has a reported chromatographic logP of 1.63

// chromatographic logP value for CC(C)S(=O)(=O)NC(=O)c1cccc(-c2nnc(-c3cncc(F)c3)s2)n1 [Compound 72] : 2.31

// recorded chromatographic logP for CN(C)S(=O)(=O)NC(=O)c1cccc(-c2cnc(-c3cncc(F)c3)s2)n1 [Compound 53] : 2.54

Sample O=C(NS(=O)(=O)C1CC1)c1cccc(-c2cnc(-c3cncc(F)c3)s2)n1 [Compound 6] ; chromatographic logP observed: 2.44

For record O=C(NS(=O)(=O)C1CC1)c1cccc(-c2cnn(-c3cccnc3)c2)n1 [Compound 30] the listed chromatographic logP is 1.85

For this compound ( O=C(NS(=O)(=O)C(F)(F)F)c1cccc(-c2cnc(-c3cncc(F)c3)s2)n1 [Compound 2] ), measured chromatographic logP is 1.86

compound CS(=O)(=O)NC(=O)c1nc(-c2cnn(-c3cccnc3)c2)cs1 [Compound 45] , chromatographic logP observed: 1.16

Entry under test: CS(=O)(=O)N(c1cccc(-c2cnn(-c3cncc(F)c3)c2)n1)S(C)(=O)=O [Compound 14] . Its chromatographic logP was 2.15

Input CS(=O)(=O)NC(=O)c1cccc(-c2cnn(-c3cncnc3)c2)n1 [Compound 22] . Output chromatographic logP: 1.38

Given item CCS(=O)(=O)Nc1cccc(-c2cnn(-c3cccnc3)c2)n1 [Compound 19] , the value recorded as its chromatographic logP is 1.48

# chromatographic logP (compound: NS(=O)(=O)c1cccc(-c2cnn(-c3cncnc3)c2)n1 [XVII-3] ) is 0.89

chromatographic logP for CS(=O)(=O)NC(=O)c1csc(-c2cnn(-c3cccnc3)c2)n1 [Compound 36] is 1.25

Just so you know, measured chromatographic logP for O=C(NS(=O)(=O)Cc1ccccc1)c1cccc(-c2cnn(-c3cccnc3)c2)n1 [Compound 35] came out at 2.44

// CCS(=O)(=O)NC(=O)c1cccc(-c2cnn(-c3cncc(F)c3)c2)n1 [Compound 26] : chromatographic logP value = 2.21

###

- experimental_protocol: Determination of the log P values (formic acid method)
- stated_conditions: reverse-phase C18 HPLC column, pH 3.4, logP (HCOOH), final compounds table; HPLC reverse-phase C18, acidic range pH 3.4, 55° C.
- Method: 1) Description of Method for Determination of the log P Values (Formic Aid Method) Eluents for determination in the acidic range (pH 3.4): Eluent A: acetonitrile+1 ml of formic acid/liter. Eluent B: water+0.9 ml of formic acid/liter. The lambda max values were determined in the maxima of the chromatographic signals using the UV spectra from 200 nm to 400 nm.
endpoint: chromatographic logP
Please reply with the number alone, leaving off any unit.

Sure, the documented chromatographic logP for `O=C(NS(=O)(=O)C(F)F)c1cccc(-c2cnc(-c3cncc(F)c3)s2)n1` is 1.79

Reported chromatographic logP for `CN(C(=O)c1cccc(-c2cnc(-c3cncc(F)c3)s2)n1)S(C)(=O)=O` was 2.27

Briefly, chromatographic logP measured for `CN(C)S(=O)(=O)NC(=O)c1cccc(-c2cnc(-c3cncnc3)s2)n1` : 1.9

For this compound ( `O=C(NS(=O)(=O)c1ccccc1)c1cccc(-c2cnn(-c3cccnc3)c2)n1` ), measured chromatographic logP is 2.26

Measured chromatographic logP, `O=C(NS(=O)(=O)C1CC1)c1cccc(-c2cnn(-c3cncc(F)c3)c2)n1` : 2.35

Form: compound = `CCS(=O)(=O)NC(=O)c1cccc(-c2cnc(-c3cncc(F)c3)s2)n1` ; chromatographic logP = 2.33

Field chromatographic logP (entry `CC(C)(C)S(=O)(=O)NC(=O)c1cccc(-c2cnc(-c3cncc(F)c3)s2)n1` ) reads 2.77

Query `CN(C)S(=O)(=O)NC(=O)c1cccc(-c2cnn(-c3cncc(F)c3)c2)n1` yields chromatographic logP of 2.42

Lab book: chromatographic logP of `Cc1noc(C)c1S(=O)(=O)NC(=O)c1cccc(-c2cnc(-c3cncc(F)c3)s2)n1` noted as 3

Reported chromatographic logP for `O=C(NS(=O)(=O)N1CCCCC1)c1cccc(-c2cnc(-c3cncc(F)c3)s2)n1` was 3.29

chromatographic logP measured on `O=C(NS(=O)(=O)c1ccc(Cl)s1)c1cccc(-c2nnc(-c3cncc(F)c3)s2)n1` = 3.08
